Please go through the items and note down their folding enthalpy.
experiment: folding enthalpy; higher = less favourable; fluorescence melt of hairpins on a sequencing array, two-state fit; conditions: sodium 0.088 M
Respond numerically; units are kcal/mol and should not be typed.

Exercise: folding enthalpy lookup needed for GTTAAGGGAAACCTTGAC ((.((((....)))).)) , thanks.
Solution: -29.3

Exercise: Continue with GCAAAGGGAAACCCTTGC ((((.((....)).))))
Solution: -29.5

Exercise: Continue with GATCACGAGGTGATC ((((((...))))))
Solution: -33.7

Exercise: Continue with GCTCACGAAAGTGCGAGC ((((((....)))..)))
Solution: -19.8

Exercise: Continue with GATCTCCCATGAGATC ((((((....))))))
Solution: -34.4

Exercise: Continue with CGAGCGGAAACGCAGTCG ((((((....)))..)))
Solution: -13.6

Exercise: Continue with GTCTGTCGAAAGACCGAC (((.(((....))).)))
Solution: -27.8

Exercise: Continue with GAGGCTGGAAACGGCTTC ((.((.(....).)).))
Solution: -20.8

Exercise: Continue with GAGCTAGGAAACTGGCTC ((((.((....)).))))
Solution: -36.2

Exercise: Continue with GTAGGTGGAAACACCTAC (((((((....)))))))
Solution: -36.7

Exercise: Continue with GGTTAGGGAAACCTAGTC (..((((....))))..)
Solution: -11.7

Exercise: Continue with GGACGGGCGAAAGCCTCC (((..(((....))))))
Solution: -10.5

Exercise: Continue with GTGTTACGAAAGTACCAC (((.(((....))).)))
Solution: -29.4

Exercise: Continue with GATCGTAGCGACGATC ((((((....))))))
Solution: -38.9

Exercise: Continue with GGTCTACGAAAGTAACC (((.(((....))))))
Solution: -24

Exercise: Continue with GCTTAGGCGAAAGCCAGC (((..(((....))))))
Solution: -15.1

###

assay: folding enthalpy; higher = less favourable; fluorescence melt of hairpins on a sequencing array, two-state fit; details: sodium 0.088 M
Quantity Kind: folding enthalpy (kcal/mol)
Respond numerically; units are kcal/mol and should not be typed.

Exercise: folding enthalpy lookup needed for GAATGCACGAAAGTGTTC (((..(((....)))))) , thanks.
Solution: -8.75

Exercise: Continue with GGACACGAAAGTGGTTCC ((((((....)))..)))
Solution: -14.3

Exercise: Continue with GACCGGACGAAAGTCGTC (((..(((....))))))
Solution: -12.1

Exercise: Continue with GAGTCTGGAAACAGGCTC (((.(((....))).)))
Solution: -44

Exercise: Continue with GTAGGGGAAACCCTAC ((((((....))))))
Solution: -36.7

Exercise: Continue with GCGGTTACCGC ((((...))))
Solution: -28.8

Exercise: Continue with GGCGCTCGAAAGAGGCC (((.(((....))))))
Solution: -40.1

Exercise: Continue with GAACGCGAAAGCGTGTTC ((((((....)))..)))
Solution: -10.5

###

experiment: melting temperature; fluorescence melt of hairpins on a sequencing array, two-state fit, raised by 9.35 °C to match UV melts; conditions: sodium 0.088 M
Please go through the items and note down their Tm.
Respond numerically; units are °C and should not be typed.

Exercise: Tm lookup needed for GATCGGTAACCCGATC ((((((....)))))) , thanks.
Solution: 54.3

Exercise: Continue with GGTCGTGGAAACGTGACC ((((..(....)..))))
Solution: 46.5

Exercise: Continue with GTTGTGGGAAACCATAAC (((.(((....))).)))
Solution: 43.5

Exercise: Continue with GTAGCTGGAAACAACTAC ((((.((....)).))))
Solution: 35.9

Exercise: Continue with GGGGACGAAAGTCACCC ((((((....))).)))
Solution: 65.7

Exercise: Continue with GTTGACGAAAGTCATAAC ((((((....)))..)))
Solution: 33.5

Exercise: Continue with GCTTGCGAAAGCACAGC ((((((....))).)))
Solution: 50.5

Exercise: Continue with GGCAGAGCGAAAGCTGCC (((..(((....))))))
Solution: 61.9

Exercise: Continue with GTCGTTGGAAACAACGGC (.(((((....))))).)
Solution: 55.1

Exercise: Continue with CGGAACGGAAACGTGCCG (((.(((....))).)))
Solution: 56

Exercise: Continue with GGAATACGAAAGTAATCC (((.(((....))).)))
Solution: 40.1

Exercise: Continue with GCATTCGAAAGAAAATGC ((((((....)))..)))
Solution: 34.6

Exercise: Continue with GTCTGGGCGAAAGCCGAC (((..(((....))))))
Solution: 44.4

Exercise: Continue with GATCAGCCGGCTGATC ((((((....))))))
Solution: 63.4

Exercise: Continue with GCGCCGGCGAAAGCCCGC (((..(((....))))))
Solution: 55.5

Exercise: Continue with GTCTACCGAAAGGTGGAC (((.(((....))).)))
Solution: 60.6

Exercise: Continue with GTTACGCGAAAGCGAAAC (((.(((....))).)))
Solution: 51.1

Exercise: Continue with GCGCCAGGAAACCGACGC (((.(.(....).).)))
Solution: 39.4

Exercise: Continue with GGCGTCGAAAGACCGCC ((((((....))).)))
Solution: 60.5

Exercise: Continue with GGAAGCGAAAGCTGTCC ((((((....))).)))
Solution: 47.4

Exercise: Continue with GTTGAGACGAAAGTCAAC (((..(((....))))))
Solution: 38.4

Exercise: Continue with GACCCCGGAAACGAGGCC (.((.((....)).)).)
Solution: 27.5

Exercise: Continue with GAGATTCCGAAAGGACTC (((..(((....))))))
Solution: 30.5

Exercise: Continue with GGATGCTCGAAAGAGTCC (((..(((....))))))
Solution: 29.1

Exercise: Continue with GATCTCGCGAGAGATC ((((((....))))))
Solution: 64.2

Exercise: Continue with GGGCAGACGAAAGTCCCC (((..(((....))))))
Solution: 42.9

Exercise: Continue with GCTCACGAAAGTGCAAGC ((((((....)))..)))
Solution: 39.4

Exercise: Continue with GATCGTACCACGATC ((((((...))))))
Solution: 57.3

Exercise: Continue with GAACGCGCGAAAGCGTTC (((..(((....))))))
Solution: 57.8

Exercise: Continue with GACCAACCGAAAGGTGTC (((..(((....))))))
Solution: 35.5

Exercise: Continue with GGTGTTGGAAACGATACC (((.(.(....).).)))
Solution: 33.2

Exercise: Continue with GGAACACGAAAGTGATCC (((.(((....))).)))
Solution: 52.7

Exercise: Continue with GTCACCCGAAAGGGCGAC (((.(((....))).)))
Solution: 58.9

Exercise: Continue with GTTGACGAAAGTCAAAAC ((((((....)))..)))
Solution: 38.4

Exercise: Continue with AGCTGGAAACAGCT (((((....)))))
Solution: 54.3

Exercise: Continue with GATCGTAAAACGATC ((((((...))))))
Solution: 54.4

Exercise: Continue with GTCTCCGCGAAAGCGGAC (((..(((....))))))
Solution: 34.2

Where these numbers come from: the array DNA melting data of Ke et al. (doi:10.1101/2024.01.08.574731)
